- ASSAY_NOTES: Dog PK study #1 (Compound A IV and PO, propylene glycol formulation)
- Assay type: in vivo, beagle dogs
- RUN_PARAMETERS: beagle, dog, plasma, po, 5 mg/kg, oral 5 mg/kg, 24 h; mean
PROPERTY_MEASURED: concentration at 24 h (ng/mL)
State the answer as a number, implicitly in ng/mL.

concentration at 24 h reported for this compound `Cn1cc(-c2ccccc2)c(-c2cn(C)c(=O)c3[nH]c(-c4cnn(C(F)(F)F)c4)cc23)cc1=O` : 29.9

----------
- ASSAY_NOTES: Rat PK study #3 (ABBV-744 IV 1 mg/kg and PO 5 mg/kg)
- Assay type: in vivo, SD rats
- RUN_PARAMETERS: male, Sprague-Dawley, rat, plasma, iv, 1 mg/kg, SD rats, IV 1 mg/kg, DMSO/PEG-400/Milli-Q water formulation, 0.083 h, individual animals
PROPERTY_MEASURED: concentration at 0.083 h (ng/mL)
The figure you give is taken to be in ng/mL; do not add the unit.

concentration at 0.083 h measured on `CCNC(=O)c1cc2c(-c3cc(C(C)(C)O)ccc3Oc3c(C)cc(F)cc3C)cn(C)c(=O)c2[nH]1` = 351

----------
- ASSAY_NOTES: Rat PK study #3 (ABBV-744 IV 1 mg/kg and PO 5 mg/kg)
- Format: in vivo, SD rats
- RUN_PARAMETERS: male, Sprague-Dawley, rat, plasma, iv, 1 mg/kg, SD rats, IV 1 mg/kg, DMSO/PEG-400/Milli-Q water formulation, 1 h, individual animals
PROPERTY_MEASURED: concentration at 1 h (ng/mL)
// note: answer is a bare numeric in ng/mL

Recorded result, `CCNC(=O)c1cc2c(-c3cc(C(C)(C)O)ccc3Oc3c(C)cc(F)cc3C)cn(C)c(=O)c2[nH]1` , concentration at 1 h: 158

----------
- ASSAY_NOTES: Rat PK study #4 (Compound A PO 0.2 and 1.0 mg/kg, propylene glycol formulation)
- Assay type: in vivo, Lewis rats
- RUN_PARAMETERS: male, Lewis, rat, plasma, po, 0.2 mg/kg, 0.2 mg/kg PO, propylene glycol-based formulation; mean
PROPERTY_MEASURED: half-life (h)
// units = h; emit number, no label

The molecule Cn1cc(-c2ccccc2)c(-c2cn(C)c(=O)c3[nH]c(-c4cnn(C(F)(F)F)c4)cc23)cc1=O [Compound A] showed half-life equal to 5.85

----------
- ASSAY_NOTES: Dog PK study #3 (Compound A PO once daily 5 days, 5/10/20 mg/kg; PK, body weight, hematology)
- Type: in vivo, beagle dogs
- RUN_PARAMETERS: male, beagle, dog, plasma, po, 5 mg/kg, Day 5, 5 mg/kg dose PO; mean; read-out: MRT0-inf
PROPERTY_MEASURED: MRT inf (h)
Number in h, nothing else.

// MRT inf value for `Cn1cc(-c2ccccc2)c(-c2cn(C)c(=O)c3[nH]c(-c4cnn(C(F)(F)F)c4)cc23)cc1=O` : 15.1

----------
- ASSAY_NOTES: Rat PK study #4 (Compound A PO 0.2 and 1.0 mg/kg, propylene glycol formulation)
- Format: in vivo, Lewis rats
- RUN_PARAMETERS: male, Lewis, rat, plasma, po, 0.2 mg/kg, 0.2 mg/kg PO, propylene glycol-based formulation; mean; read-out: MRTInf_obs
PROPERTY_MEASURED: MRT inf (h)
Quick note: give the figure in h, leave out the unit.

response.value for Cn1cc(-c2ccccc2)c(-c2cn(C)c(=O)c3[nH]c(-c4cnn(C(F)(F)F)c4)cc23)cc1=O [Compound A] (field: MRT inf) = 8.65

----------
- ASSAY_NOTES: Dog PK study #3 (Compound A PO once daily 5 days, 5/10/20 mg/kg; PK, body weight, hematology)
- Type: in vivo, beagle dogs
- RUN_PARAMETERS: male, beagle, dog, plasma, po, 10 mg/kg, Day 1, 10 mg/kg dose PO; mean; read-out: MRT0-inf
PROPERTY_MEASURED: MRT inf (h)
Your answer should be a plain number; it is taken to be in h.

MRT inf reported for this molecule `Cn1cc(-c2ccccc2)c(-c2cn(C)c(=O)c3[nH]c(-c4cnn(C(F)(F)F)c4)cc23)cc1=O` : 9.17

----------
- ASSAY_NOTES: Rat PK study #3 (ABBV-744 IV 1 mg/kg and PO 5 mg/kg)
- Format: in vivo, SD rats
- RUN_PARAMETERS: male, Sprague-Dawley, rat, plasma, po, 5 mg/kg, SD rats, PO 5 mg/kg, DMSO/PEG-400/Milli-Q water formulation, 8 h, mean of 3 animals
- Experimental: For the third rat pharmacokinetic study, the pharmacokinetics of ABBV-744 were assessed in male SD rats for comparison to Compound A. ABBV-744 was prepared in a formulation of 5% DMSO, 40% PEG-400, and 55% Milli-Q water (see Table 2D for formulation) and delivered to animals orally (PO) at a dose of 5 mg/kg, or intravenously (IV) at a dose of 1 mg/kg. Animals in each group (n=3) were then monitored over a 24-hour period. […]
PROPERTY_MEASURED: concentration at 8 h (ng/mL)
A number alone suffices; assume ng/mL.

Briefly, concentration at 8 h measured for `CCNC(=O)c1cc2c(-c3cc(C(C)(C)O)ccc3Oc3c(C)cc(F)cc3C)cn(C)c(=O)c2[nH]1` : 113

----------
- ASSAY_NOTES: CIA study: pharmacokinetics / plasma concentration after oral administration
- Assay type: in vivo, Lewis rats
- RUN_PARAMETERS: Lewis, rat, plasma, po, 3 mg/kg, oral 3 mg/kg, day 0, 8 h, individual test subjects; read-out: Plasma concentration
PROPERTY_MEASURED: concentration at 8 h (ng/mL)
State just the number; it will be interpreted in ng/mL.

In plain terms, Cn1cc(-c2ccccc2)c(-c2cn(C)c(=O)c3[nH]c(-c4cnn(C(F)(F)F)c4)cc23)cc1=O [Compound A] has a documented concentration at 8 h of 119

----------
- ASSAY_NOTES: UUO study: plasma concentration of Compound A
- Assay type: in vivo, rats
- RUN_PARAMETERS: male, Sprague-Dawley, rat, plasma, oral, 10 mg/kg, UUO + Compound A, male SD rats, time 4 h, mean of 8 test subjects; read-out: Concentration, Mean
PROPERTY_MEASURED: concentration at 4 h (ng/mL)
Write down the numeric answer in ng/mL and omit the unit.

Note to self: concentration at 4 h recorded for `Cn1cc(-c2ccccc2)c(-c2cn(C)c(=O)c3[nH]c(-c4cnn(C(F)(F)F)c4)cc23)cc1=O` was 201

----------
- ASSAY_NOTES: Dog PK study #3 (Compound A PO once daily 5 days, 5/10/20 mg/kg; PK, body weight, hematology)
- Format: in vivo, beagle dogs
- RUN_PARAMETERS: male, beagle, dog, plasma, po, 20 mg/kg, Day 1, 20 mg/kg dose PO; mean; read-out: MRT0-last
- Description: For the third dog pharmacokinetic study, three solutions of different concentrations of Compound A were prepared in 5% DMSO/15% PEG-400/80% (10% VE-TPGS) as outlined in Table 2E. […] Body weight was recorded prior to dosing, and detailed clinical observations were made prior to dosing and throughout the study, as needed. […] The concentration of Compound A in the blood plasma was determined through LC-MS as previously described. […] The cell composition (hematology) of blood samples was analyzed at day 5. […]
PROPERTY_MEASURED: MRT last (h)
Kindly answer with a numeric value in h, unit omitted.

Record `Cn1cc(-c2ccccc2)c(-c2cn(C)c(=O)c3[nH]c(-c4cnn(C(F)(F)F)c4)cc23)cc1=O` . Reported MRT last: 9.15

----------
- ASSAY_NOTES: Rat PK study #4 (Compound A PO 0.2 and 1.0 mg/kg, propylene glycol formulation)
- Type: in vivo, Lewis rats
- RUN_PARAMETERS: male, Lewis, rat, plasma, po, 1 mg/kg, 1 mg/kg PO, propylene glycol-based formulation; mean; read-out: MRTInf_obs
PROPERTY_MEASURED: MRT inf (h)
Entry rule: numbers only, all in h.

Recorded MRT inf (compound `Cn1cc(-c2ccccc2)c(-c2cn(C)c(=O)c3[nH]c(-c4cnn(C(F)(F)F)c4)cc23)cc1=O` ): 9.3

----------
- ASSAY_NOTES: CIA study: pharmacokinetics / plasma concentration after oral administration
- Type: in vivo, Lewis rats
- RUN_PARAMETERS: Lewis, rat, plasma, po, 3 mg/kg, CIA-induced animals, day 0, 3 mg/kg, individual test subjects; read-out: AUCInf
PROPERTY_MEASURED: AUC(0-inf) (ng·h/mL)
Record the value in ng·h/mL, omitting the unit from your answer.

Record Cn1cc(-c2ccccc2)c(-c2cn(C)c(=O)c3[nH]c(-c4cnn(C(F)(F)F)c4)cc23)cc1=O [Compound A] . Reported AUC(0-inf): 2540
